Molecular target: IgG
Assay: Affinity to IgG by surface plasmon resonance (SPR)
Assay type: binding
Settings: Biacore 8K, 25° C., IgG on CM5 chip; read-out: IgG SPR Binding Kd
In this section we review reported Kd values for a set of compounds.

# COMPOUND, TARGET_OR_TEST_SYSTEM, ASSAY_METRIC, OBSERVED
rows = [
    ("CC(C)C[C@@H]1NC(=O)[C@H](Cc2cnc[nH]2)NC(=O)[C@H](Cc2c[nH]c3ccccc23)NC(=O)[C@H](C)NC(=O)[C@@H]2CSSC[C@H](NC(=O)[C@H](Cc3c[nH]c4ccccc34)NC(=O)[C@H](C(C)C)NC(=O)[C@H](CC(C)C)NC(=O)[C@H](CCC(=O)O)NC(=O)CNC1=O)C(=O)N[C@@H]([C@@H](C)O)C(=O)N1CCC[C@@H]1C(=O)N1C[C@@H](NC(=O)CCOCCNC(=O)CCCc3cn(C[C@@]45CO[C@@H](O4)[C@H](Nc4nc(Cl)ns4)[C@@H](O)[C@H]5O)nn3)C[C@H]1C(=O)N[C@@H](CC(=O)O)C(=O)N2 [Compound 7]", "IgG", "Kd", "< 100 nM"),
]

Next, consider the following compound.
Tell me the measured Kd of C#CCCCC(=O)NCCOCCC(=O)N[C@H]1C[C@H]2C(=O)N[C@@H](CC(=O)O)C(=O)N[C@H]3CSSC[C@H](NC(=O)[C@H](Cc4c[nH]c5ccccc45)NC(=O)[C@H](C(C)C)NC(=O)[C@H](CC(C)C)NC(=O)[C@H](CCC(=O)O)NC(=O)CNC(=O)[C@H](CC(C)C)NC(=O)[C@H](Cc4cnc[nH]4)NC(=O)[C@H](Cc4c[nH]c5ccccc45)NC(=O)[C@H](C)NC3=O)C(=O)N[C@@H]([C@@H](C)O)C(=O)N3CCC[C@@H]3C(=O)N2C1 [Intermediate 7] , please.
< 100 nM

// provenance: patent US12091402B2
